- Tested on: UACC-62 melanoma
- PROTOCOL NOTES: NCI-60 one-dose screen, 48 h
- CONDITION DESCRIPTION: 10 µM unless noted
- Method: Growth inhibition of the UACC-62 human tumor cell line is measured as a screen for anti-cancer activity. Cells are grown in 96 well plates and exposed to the test compound for 48 hours. Compounds are tested at a single concentration, which is 10^-5 M for most compounds. The reported endpoint is percent growth (GI% or GIPRCNT), where numbers from 0 - 100% represent growth inhibition, and numbers from -100% - 0 represent cell death. For example, a value of 40 represents 60% growth inhibition. […]
Compounds without any hit were thinned out: in the full panel of roughly 83,000, 20% have a hit. Calls of active or inactive are those of the source. How the source made its calls: active means growth percent below 10; inactive means the rest.
Form entry, call: pick from active, inactive

Check out these entries, answers already filled in.
C[C@@H]1C/C=C\C(=O)O[C@H](/C=C/C#C/C=C/C(C)(C)[C@@H](O)c2cccc(O)c2Br)[C@@H](C)/C=C/[C@H](C)C[C@H](OC(N)=O)C1	active
Cc1ccccc1-n1c(/C=C\c2ccccn2)nc2ccccc2c1=O	inactive
C/C=C(/C)C(=O)O[C@H]1CC[C@@]2(C)[C@@H]3CC[C@H]4[C@]5(O)C[C@H](O)[C@@]6(O)[C@@H](CN7C[C@@H](C)CC[C@H]7[C@@]6(C)O)[C@]5(O)C[C@@]42O[C@@]13O	inactive
CC12CCC3C(CCC4CC(O)CCC43C)C1CCC2=O (stereo not given)	inactive
O=C(Cc1ccccc1)NC(O)C(Cl)(Cl)Cl (stereo not given)	inactive

*Q* Answer briefly: the call reported for Cc1cc[c-]cc1.Fc1c[c-]c(-c2ccccn2)c(F)c1.N#CCC[PH+](CCC#N)c1ccccc1.[Pt+2] in this assay.
*A* active

*Q* Answer briefly: the call reported for C=CC1CN2CCC1CC2C(O)c1ccnc2ccccc12 (stereo not given) in this assay.
*A* inactive

*Q* Answer briefly: the call reported for CCCCCCCCCCCCCCCCCC1OCC(COC(=O)O[C@@H](C(=O)O[C@H]2C[C@@]3(O)[C@@H](OC(=O)c4ccccc4)[C@@H]4[C@]5(OC(C)=O)CO[C@@H]5C[C@H](O)[C@@]4(C)C(=O)[C@H](OC(C)=O)C(=C2C)C3(C)C)[C@@H](NC(=O)c2ccccc2)c2ccccc2)O1 (stereo not given in full) in this assay.
*A* inactive

*Q* Answer briefly: the call reported for O=[P+](O)c1cccnc1 in this assay.
*A* inactive

*Q* Answer briefly: the call reported for N#CCN(CC#N)[N+](=O)[O-] in this assay.
*A* inactive
